The reported numbers originate from ChEMBL document CHEMBL4368920.

- measurement description: Oral bioavailability in Sprague-Dawley rat at 1 mg/kg by LC-MS/MS analysis
- Format: ADME, organism-based
- settings: in vivo
value type: bioavailability (%)

* CSc1ncccc1CNc1ncc(C#N)c(NCC23CC4CC(C2)C(NC[C@H]2CC[C@H](O)CC2)C(C4)C3)n1 (stereo partly specified) | 58.3

----------
- experimental target: CYP3A4 (Homo sapiens, UniProt P08684)
- Sequence (P08684 whole entry): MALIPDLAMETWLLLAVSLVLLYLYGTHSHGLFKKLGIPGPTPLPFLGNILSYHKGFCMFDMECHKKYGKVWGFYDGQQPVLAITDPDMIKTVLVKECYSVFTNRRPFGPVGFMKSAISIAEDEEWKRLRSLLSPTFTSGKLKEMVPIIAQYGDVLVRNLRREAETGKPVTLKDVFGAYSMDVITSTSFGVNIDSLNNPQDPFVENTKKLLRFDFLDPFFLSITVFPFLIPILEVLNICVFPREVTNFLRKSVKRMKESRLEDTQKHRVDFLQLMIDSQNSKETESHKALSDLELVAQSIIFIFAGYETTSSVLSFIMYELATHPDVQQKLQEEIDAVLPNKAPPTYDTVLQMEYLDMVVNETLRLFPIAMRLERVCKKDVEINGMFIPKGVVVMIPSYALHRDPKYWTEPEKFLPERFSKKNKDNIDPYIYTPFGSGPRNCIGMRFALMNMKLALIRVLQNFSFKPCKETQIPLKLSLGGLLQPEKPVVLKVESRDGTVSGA
- measurement description: Time-dependent inhibition of CYP3A4 in human liver microsomes assessed as residual activity at 5 uM using midazolam as substrate preincubated for 30 mins followed by substrate addition and measured after 20 mins in presence of NADPH by LC-MS/MS analysis relative to control
- Assay type: ADME
- settings: probe midazolam, read-out: Activity
Below, each of the molecules is paired with its reported activity at 20 min, 5 µM value.
value type: activity at 20 min, 5 µM (%)

* N#Cc1cnc(NCc2ccccc2C(F)(F)F)nc1NCC12CC3CC(C1)C(NC[C@H]1CC[C@H](O)CC1)C(C3)C2 (some centres not stated) | 63
* CSc1ccccc1CNc1ncc(C#N)c(NCC23CC4CC(C2)C(NC[C@H]2CC[C@H](O)CC2)C(C4)C3)n1 (some centres not stated) | 92
* N#Cc1cnc(NCc2ccccc2OC(F)(F)F)nc1NCC12CC3CC(C1)C(N[C@H]1CC[C@H](N)CC1)C(C3)C2 (some centres not stated) | 59
* N#Cc1cnc(NCc2ccccc2OC(F)(F)F)nc1NCC12CC3CC(C1)C(N[C@H]1CC[C@H](O)CC1)C(C3)C2 (some centres not stated) | 64
* CC(C)Sc1ncccc1CNc1ncc(C#N)c(NCC23CC4CC(C2)C(NC[C@H]2CC[C@H](O)CC2)C(C4)C3)n1 (some centres not stated) | 66
* N#Cc1cnc(NCc2ccccc2OC(F)(F)F)nc1NCC12CC3CC(C1)C(NC1CCCCC1)C(C3)C2 (configuration not stated) | 43
* N#Cc1cnc(NCc2ccccc2OC(F)(F)F)nc1NCC12CC3CC(C1)C(NC1CCOCC1)C(C3)C2 (configuration not stated) | 41
* CC(C)Oc1ncccc1CNc1ncc(C#N)c(NCC23CC4CC(C2)C(NC[C@H]2CC[C@H](O)CC2)C(C4)C3)n1 (some centres not stated) | 87
* CC(C)NC1C2CC3CC1CC(CNc1nc(NCc4ccccc4OC(F)(F)F)ncc1C#N)(C3)C2 (configuration not stated) | 29
* N#Cc1cnc(NCc2ccccc2OC(F)(F)F)nc1NCC12CC3CC(C1)C(NC[C@H]1CC[C@H](O)CC1)C(C3)C2 (some centres not stated) | 70
* N#Cc1cnc(NCc2ccccc2OC(F)(F)F)nc1NCC12CC3CC(C1)C(NCCO)C(C3)C2 (configuration not stated) | 36
* N#Cc1cnc(NCc2ccccc2OC(F)(F)F)nc1NCC12CC3CC(C1)C(N[C@H]1CC[C@@H](O)CC1)C(C3)C2 (some centres not stated) | 43

----------
- measurement description: AUC (0 to 24 hrs) in Sprague-Dawley rat at 1 mg/kg, iv by LC-MS/MS analysis
- Type: ADME, organism-based
- Parameters: time < 24 hr, dose 1 mg/kg, route intravenous
- settings: in vivo
value type: AUC(0-t) at 24 h (ng·h/mL)

- CSc1ncccc1CNc1ncc(C#N)c(NCC23CC4CC(C2)C(NC[C@H]2CC[C@H](O)CC2)C(C4)C3)n1 (stereo partly specified): 248

----------
- measurement description: Aqueous solubility of the compound at pH 6.8 at 130 uM after 20 hrs by HPLC analysis
- Format: physicochemical
- settings: aqueous solution
value type: solubility at 20 h, 130 µM

• N#Cc1cnc(NCc2ccccc2OC(F)(F)F)nc1NCC12CC3CC(C1)C(NC[C@H]1CC[C@H](O)CC1)C(C3)C2 (stereo partly specified) = < 1 µM
• CSc1ccccc1CNc1ncc(C#N)c(NCC23CC4CC(C2)C(NC[C@H]2CC[C@H](O)CC2)C(C4)C3)n1 (stereo partly specified) = 45 µM
• CS(=O)(=O)c1ncccc1CNc1ncc(C#N)c(NCC23CC4CC(C2)C(NC[C@H]2CC[C@H](O)CC2)C(C4)C3)n1 (stereo partly specified) = > 100 µM
• CCSc1ncccc1CNc1ncc(C#N)c(NCC23CC4CC(C2)C(NC[C@H]2CC[C@H](O)CC2)C(C4)C3)n1 (stereo partly specified) = 16 µM
• C[S+]([O-])c1ncccc1CNc1ncc(C#N)c(NCC23CC4CC(C2)C(NC[C@H]2CC[C@H](O)CC2)C(C4)C3)n1 (stereo partly specified) = > 100 µM
• CSc1ncccc1CNc1ncc(C#N)c(NCC23CC4CC(C2)C(NC[C@H]2CC[C@H](O)CC2)C(C4)C3)n1 (stereo partly specified) = > 50 µM
• CC(C)Sc1ncccc1CNc1ncc(C#N)c(NCC23CC4CC(C2)C(NC[C@H]2CC[C@H](O)CC2)C(C4)C3)n1 (stereo partly specified) = < 1 µM
• N#Cc1cnc(NCc2ccccc2Cl)nc1NCC12CC3CC(C1)C(NC[C@H]1CC[C@H](O)CC1)C(C3)C2 (stereo partly specified) = 1.1 µM
• COc1ncccc1CNc1ncc(C#N)c(NCC23CC4CC(C2)C(NC[C@H]2CC[C@H](O)CC2)C(C4)C3)n1 (stereo partly specified) = > 50 µM
• COc1nnccc1CNc1ncc(C#N)c(NCC23CC4CC(C2)C(NC[C@H]2CC[C@H](O)CC2)C(C4)C3)n1 (stereo partly specified) = > 100 µM
• CC(C)Oc1ncccc1CNc1ncc(C#N)c(NCC23CC4CC(C2)C(NC[C@H]2CC[C@H](O)CC2)C(C4)C3)n1 (stereo partly specified) = > 100 µM

----------
- measurement description: AUC (0 to 24 hrs) in Sprague-Dawley rat at 1 mg/kg, po by LC-MS/MS analysis
- Format: ADME, organism-based
- Design: time < 24 hr, dose 1 mg/kg, route oral
- settings: in vivo
value type: AUC(0-t) at 24 h (ng·h/mL)

• CSc1ncccc1CNc1ncc(C#N)c(NCC23CC4CC(C2)C(NC[C@H]2CC[C@H](O)CC2)C(C4)C3)n1 (stereo partly specified) = 145

----------
- experimental target: CYP3A4 (Homo sapiens)
- measurement description: Time-dependent inhibition of CYP3A4 in human liver microsomes assessed as residual activity at 5 uM using midazolam as substrate preincubated for 30 mins followed by substrate addition and measured after 20 mins in presence of NADPH by LC-MS/MS analysis relative to control
- Type: ADME
- settings: probe midazolam, read-out: Activity
value type: activity at 20 min, 5 µM (%)

- N#Cc1cnc(NCc2ccccc2Cl)nc1NCC12CC3CC(C1)C(NC[C@H]1CC[C@H](O)CC1)C(C3)C2 (some centres undefined): 77
- CCSc1ncccc1CNc1ncc(C#N)c(NCC23CC4CC(C2)C(NC[C@H]2CC[C@H](O)CC2)C(C4)C3)n1 (some centres undefined): 80
- CSc1ncccc1CNc1ncc(C#N)c(NCC23CC4CC(C2)C(NC[C@H]2CC[C@H](O)CC2)C(C4)C3)n1 (some centres undefined): 98
- COc1ncccc1CNc1ncc(C#N)c(NCC23CC4CC(C2)C(NC[C@H]2CC[C@H](O)CC2)C(C4)C3)n1 (some centres undefined): 94

----------
Listed next: entries and their corresponding pIC50.
- experimental target: Protein kinase C theta type (Homo sapiens)
- Sequence (Q04759 whole entry): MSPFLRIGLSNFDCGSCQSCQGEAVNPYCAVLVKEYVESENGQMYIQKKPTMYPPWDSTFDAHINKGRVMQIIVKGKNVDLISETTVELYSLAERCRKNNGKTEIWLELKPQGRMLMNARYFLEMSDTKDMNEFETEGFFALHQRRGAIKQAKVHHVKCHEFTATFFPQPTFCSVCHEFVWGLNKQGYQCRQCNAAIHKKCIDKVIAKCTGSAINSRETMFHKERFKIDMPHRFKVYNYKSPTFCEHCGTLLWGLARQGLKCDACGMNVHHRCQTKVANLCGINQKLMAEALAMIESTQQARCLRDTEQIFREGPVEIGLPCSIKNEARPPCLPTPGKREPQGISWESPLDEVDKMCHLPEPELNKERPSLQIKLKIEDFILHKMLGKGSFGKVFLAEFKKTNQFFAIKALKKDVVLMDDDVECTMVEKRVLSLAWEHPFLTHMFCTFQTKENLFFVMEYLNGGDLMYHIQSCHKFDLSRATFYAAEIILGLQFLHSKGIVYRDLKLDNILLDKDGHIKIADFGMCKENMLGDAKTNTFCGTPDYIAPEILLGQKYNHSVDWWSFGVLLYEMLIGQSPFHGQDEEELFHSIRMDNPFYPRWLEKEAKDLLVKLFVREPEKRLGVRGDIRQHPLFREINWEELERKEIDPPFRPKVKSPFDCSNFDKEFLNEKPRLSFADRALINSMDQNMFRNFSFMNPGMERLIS
- measurement description: Inhibition of recombinant human full length PKCtheta using biotin-labelled STK substrate-1 as substrate after 60 mins by fluorescence assay
pIC50: −log10 of the molar value.
value type: pIC50

- C[S+]([O-])c1ncccc1CNc1ncc(C#N)c(NCC23CC4CC(C2)C(NC[C@H]2CC[C@H](O)CC2)C(C4)C3)n1 (stereo partly drawn): 7.49
- CSc1ccccc1CNc1ncc(C#N)c(NCC23CC4CC(C2)C(NC[C@H]2CC[C@H](O)CC2)C(C4)C3)n1 (stereo partly drawn): 9.03
- N#Cc1cnc(NCc2ccccc2OC(F)(F)F)nc1NCC12CC3CC(C1)C(N[C@H]1CC[C@H](N)CC1)C(C3)C2 (stereo partly drawn): 10.00
- COc1ncccc1CNc1ncc(C#N)c(NCC23CC4CC(C2)C(NC[C@H]2CC[C@H](O)CC2)C(C4)C3)n1 (stereo partly drawn): 8.72
- N#Cc1cnc(NCc2ccccc2Cl)nc1NCC12CC3CC(C1)C(NC[C@H]1CC[C@H](O)CC1)C(C3)C2 (stereo partly drawn): 8.85
- CC(C)Oc1ncccc1CNc1ncc(C#N)c(NCC23CC4CC(C2)C(NC[C@H]2CC[C@H](O)CC2)C(C4)C3)n1 (stereo partly drawn): 9.23
- N#Cc1cnc(NCc2ccccc2OC(F)(F)F)nc1NCC12CC3CC(C1)C(N[C@H]1CC[C@H](O)CC1)C(C3)C2 (stereo partly drawn): 9.42
- CSc1ncccc1CNc1ncc(C#N)c(NCC23CC4CC(C2)C(NC[C@H]2CC[C@H](O)CC2)C(C4)C3)n1 (stereo partly drawn): 9.36
- N#Cc1cnc(NCc2ccccc2OC(F)(F)F)nc1NCC12CC3CC(C1)C(NC1CCCCC1)C(C3)C2 (stereo not drawn): 8.72
- N#Cc1cnc(NCc2ccccc2OC(F)(F)F)nc1NCC12CC3CC(C1)C(NCCO)C(C3)C2 (stereo not drawn): 9.15
- CC(C)Sc1ncccc1CNc1ncc(C#N)c(NCC23CC4CC(C2)C(NC[C@H]2CC[C@H](O)CC2)C(C4)C3)n1 (stereo partly drawn): 9.64
- CCSc1ncccc1CNc1ncc(C#N)c(NCC23CC4CC(C2)C(NC[C@H]2CC[C@H](O)CC2)C(C4)C3)n1 (stereo partly drawn): 9.34
- N#Cc1cnc(NCc2ccccc2OC(F)(F)F)nc1NCC12CC3CC(C1)C(N[C@H]1CC[C@@H](O)CC1)C(C3)C2 (stereo partly drawn): 9.18
- N#Cc1cnc(NCc2ccccc2OC(F)(F)F)nc1NCC12CC3CC(C1)C(NC[C@H]1CC[C@H](O)CC1)C(C3)C2 (stereo partly drawn): 9.38
- N#Cc1cnc(NCc2ccccc2C(F)(F)F)nc1NCC12CC3CC(C1)C(NC[C@H]1CC[C@H](O)CC1)C(C3)C2 (stereo partly drawn): 9.24
